procedure-summary: in vitro
experimental-parameters: human, microsomes, pH 7.4, Microsome Clint,u Human, Table 2; intrinsic in vitro clearance, liver microsomes
measure: microsomal CLint at 0.5 h, 0.5 µM (µL/min/mg)
Your answer should be a plain number; it is taken to be in µL/min/mg.

>>> numeric_readout("COc1ccc(C(=O)N2CCOCC2)cc1S(=O)(=O)N(Cc1ccccc1)CC(C)(C)C")
1600
>>> numeric_readout("COc1ccc(OC)c(S(=O)(=O)N(Cc2ccc(F)cc2)c2ccc(F)cc2)c1")
482
>>> numeric_readout("COc1ccc(C(=O)N2CCOCC2)cc1S(=O)(=O)N(Cc1ccccc1)Cc1cnc(C(F)(F)F)nc1")
73
>>> numeric_readout("COCCN(Cc1ccc(F)cc1)S(=O)(=O)c1ccccc1OC(F)(F)F")
194
>>> numeric_readout("COc1ccc(C(=O)N2CCOCC2)cc1S(=O)(=O)N(Cc1ccc(F)cc1)CC(C)C")
1050
>>> numeric_readout("COc1ccc(OC)c(S(=O)(=O)N(Cc2ccc(F)cc2)Cc2ccnn2C)c1")
651
>>> numeric_readout("COc1ccc(C(=O)N2CCOCC2)cc1S(=O)(=O)N(Cc1ccc(C(F)(F)F)nc1)CC(C)(C)C")
143
>>> numeric_readout("COc1ccc(C(=O)N2CCOCC2)cc1S(=O)(=O)N(Cc1ccc(F)cc1)Cc1ccc(C(F)(F)F)nc1")
265

Next, consider the following compound.
Reported microsomal CLint at 0.5 h, 0.5 µM, compound `COc1ccc(OC)c(S(=O)(=O)N(Cc2ccc(F)cc2)Cc2cnc(OC)nc2OC)c1` : ____
498

----------
Test system: Leishmania infantum MHOM/MA(BE)/67/ITMAP263 intracellular amastigotes
procedure-summary: microbe, parasite or virus in culture
experimental-parameters: Macrophage, in Mus musculus, read-out: L. Inf. pIC50, from L. infantum intracellular amastigote IC50 (converted)
measure: IC50

Some compounds with known IC50 results, for comparison:
>>> result("O=S(=O)(c1cccnc1OC(F)F)N(Cc1ccc(F)cc1)Cc1ccc(F)cc1")
"9.33 µM"
>>> result("COCCN(C(C)=O)c1ccc(S(=O)(=O)N(CCOC)Cc2ccccc2)cc1")
"> 64 µM"

Reported IC50, compound O=S(=O)(NC(CO)Cc1ccccc1)c1cc(F)ccc1F (centres unmarked) : ____
> 64 µM

Please give the result for `COc1ccc(S(C)(=O)=O)cc1S(=O)(=O)N(Cc1ccc(F)cc1)Cc1ccc(F)cc1` too.
1.29 µM

Please give the result for `COc1ccc(C(=O)O)cc1S(=O)(=O)N(Cc1ccccc1)Cc1ccccc1` too.
57.5 µM

Please give the result for `O=S(=O)(c1cccnc1N1CCOCC1)N(Cc1ccc(F)cc1)Cc1ccc(F)cc1` too.
2.82 µM

Please give the result for `COCCNc1ccc(S(=O)(=O)N(CCOC)Cc2ccccc2)cc1` too.
38.9 µM

Please give the result for `COc1ccc(C(=O)NC2COC2)cc1S(=O)(=O)N(Cc1ccc(F)cc1)Cc1ccc(F)cc1` too.
0.794 µM

----------
Catalogue of compounds with associated CC50 at 3 days
procedure-summary: in vitro
experimental-parameters: human

Some compounds with known CC50 at 3 days results, for comparison:
>>> result("CCN(CC)C(=O)CN(Cc1ccccc1)S(=O)(=O)c1ccc(OC)c(OC)c1")
"> 55.4 µM"
>>> result("CN(C)c1ncccc1S(=O)(=O)N(Cc1ccc(F)cc1)Cc1ccc(F)cc1")
"42.7 µM"
>>> result("CCCCOc1cc(C)c(Cl)cc1S(=O)(=O)NCc1cccs1")
"4.56 µM"
>>> result("COc1ccc(Cl)cc1S(=O)(=O)N(CC(=O)c1ccc(F)cc1)Cc1ccccc1")
"> 64 µM"
>>> result("O=S(=O)(c1ccccc1Br)N(Cc1ccccc1)C(CO)Cc1ccccc1 (centres unmarked)")
"21.3 µM"
>>> result("CN(C)CCN(Cc1ccccc1)S(=O)(=O)c1ccc(N)cc1")
"> 64 µM"
>>> result("CCCCC(=O)Nc1cccnc1S(=O)(=O)CCc1ccccc1")
"> 64 µM"

Reported CC50 at 3 days, compound `COc1ccc(C(=O)N2CCOCC2)cc1S(=O)(=O)N(Cc1ccc(C(F)(F)F)nc1)CC(C)(C)C` : ____
> 64 µM

----------
Catalogue of compounds with associated microsomal CLint at 0.5 μM
procedure-summary: in vitro
experimental-parameters: mouse, microsomes, pH 7.4, MLM CLint, mouse liver microsomes
Your answer should be a plain number; it is taken to be in µL/min/mg.

>>> numeric_readout("O=S(=O)(c1ccccc1Br)N(Cc1ccccc1)C(CO)Cc1ccccc1 (stereo not drawn) [DNDI0003369450]")
2180
>>> numeric_readout("CCN(Cc1ccccc1)S(=O)(=O)c1ccccc1Br [DNDI0003365405]")
235
>>> numeric_readout("O=S(=O)(c1ccccc1OC(F)(F)F)N(Cc1ccccc1)Cc1ccccc1 [DNDI0003366074]")
689

Reported microsomal CLint at 0.5 μM, compound Nc1ncccc1S(=O)(=O)N(Cc1ccc(F)cc1)Cc1ccc(F)cc1 [DNDI0003371163] : ____
447

Please give the result for COc1ccc(CN2CCOCC2)cc1S(=O)(=O)N(Cc1ccc(F)cc1)Cc1ccc(F)cc1 [DNDI0003370082] too.
3200

Please give the result for CC[C@H](Cc1ccccc1)S(=O)(=O)c1ccccc1OC [DNDI0003362003] too.
1060

Please give the result for CC(=O)Nc1ccc(S(=O)(=O)N(CCN(C)C)Cc2ccccc2)cc1 [DNDI0003366091] too.
42

Please give the result for O=S(=O)(NC(CO)Cc1ccccc1)c1ccccc1Br (stereo not drawn) [DNDI0003369449] too.
1370

Please give the result for COc1ccc(OC)c(S(=O)(=O)NCc2ccccc2)c1 [DNDI0003365408] too.
1250

Please give the result for O=C1c2ccccc2S(=O)(=O)N(Cc2ccccc2)C1Cc1ccccc1 (stereo not drawn) [DNDI0003370098] too.
1060

----------
procedure-summary: in vitro
experimental-parameters: human, THP-1 cells differentiated with PMA
measure: CC50 at 120 h

Some molecules with known CC50 at 120 h results, for comparison:
>>> result("COc1ccc(S(N)(=O)=O)cc1S(=O)(=O)N(Cc1ccccc1)Cc1ccccc1")
"> 64 µM"
>>> result("COCCN(Cc1ccccc1)S(=O)(=O)c1ccccc1OC(F)(F)F")
"> 64 µM"
>>> result("COc1ccc(C(=O)N2CCOCC2)cc1S(=O)(=O)N(Cc1ccc(C(F)(F)F)nc1)CC(C)(C)C")
"> 64 µM"
>>> result("CCCCC1Nc2cc(Cl)c(S(N)(=O)=O)cc2S(=O)(=O)N1Cc1ccccc1 (stereo not shown)")
"12 µM"
>>> result("CCCCCOc1cc(C)c(Cl)cc1S(=O)(=O)NCc1ccco1")
"> 50 µM"
>>> result("COc1ccc(CN(c2ccc3c(c2)OCO3)S(=O)(=O)c2ccc3nncn3c2)cc1")
"> 50 µM"
>>> result("O=C(c1ccc(OCC2CCCO2)c(S(=O)(=O)NCc2ccccc2)c1)N1CCOCC1 (stereo not shown)")
"> 64 µM"
>>> result("O=S1(=O)NCNc2cc(Cl)c(S(=O)(=O)N(Cc3ccccc3)Cc3ccccc3)cc21")
"52.4 µM"

Reported CC50 at 120 h, molecule `COCCOCN1CNc2cc(OC)c(S(=O)(=O)N(Cc3ccccc3)Cc3ccccc3)cc2S1(=O)=O` : ____
40.2 µM

Please give the result for `O=S(=O)(c1ccc2nncn2c1)N(Cc1cccc(F)c1)c1ccc2c(c1)OCO2` too.
> 50 µM

Please give the result for `COc1cc(S(=O)(=O)N(Cc2ccccc2)Cc2ccccc2)c(OC)cc1C` too.
> 50 µM

Please give the result for `COc1ccc(S(N)(=O)=O)cc1S(=O)(=O)NCc1ccccc1` too.
> 64 µM

Please give the result for `COc1cc2c(cc1S(=O)(=O)N(Cc1ccccc1)Cc1ccccc1)S(=O)(=O)NCN2` too.
> 64 µM

Please give the result for `COCCOCN(Cc1ccccc1)S(=O)(=O)c1cc(OC)ccc1OC` too.
> 64 µM

Please give the result for COc1ccc(C2c3cccn3CCN2S(=O)(=O)c2ccc3ccccc3c2)cc1 (stereo not shown) too.
> 50 µM

Please give the result for `COc1ccc(C#N)cc1S(=O)(=O)N(Cc1ccc(C(F)(F)F)nc1)Cc1ccc(C(F)(F)F)nc1` too.
> 64 µM

Please give the result for `COc1ccc(Cl)cc1S(=O)(=O)N(Cc1ccccc1)C1COC(=O)OC1` too.
> 64 µM

Please give the result for `COc1ccc(S(C)(=O)=O)cc1S(=O)(=O)N(Cc1ccccc1)CC(C)(C)C` too.
> 64 µM

Please give the result for `COc1ccc(S(C)(=O)=O)cc1S(=O)(=O)N(Cc1ccccc1)Cc1cc(C(F)(F)F)nn1C` too.
> 64 µM

Please give the result for `Nc1cc(Cl)c(S(N)(=O)=O)cc1S(=O)(=O)N(Cc1ccccc1)Cc1ccccc1` too.
60.6 µM

Please give the result for `COCCN(Cc1ccccc1)S(=O)(=O)c1c(OC)ccc(Cl)c1S(C)(=O)=O` too.
> 64 µM

Please give the result for COCCN(Cc1ccccc1)S(=O)(=O)c1c(OC)ccc(Cl)c1[S+](C)[O-] (stereo not shown) too.
> 64 µM

Please give the result for `CCCCOc1cc(C)c(Cl)cc1S(=O)(=O)NCc1cccs1` too.
> 50 µM
